Kindly state recombinant UMI read abundance (log10) for each of the entries shown.
protocol_notes: recombinant UMI read abundance after kanamycin selection (control-corrected) (log10(CPM+1)); higher = more efficient recombination; extreme values may be limits of the assay; sequences stand for … in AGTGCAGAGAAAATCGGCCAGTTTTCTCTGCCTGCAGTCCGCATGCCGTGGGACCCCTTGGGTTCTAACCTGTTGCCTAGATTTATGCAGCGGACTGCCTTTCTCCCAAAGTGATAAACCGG…AGGTTGGTTTCACT; site = the 11-nt donor;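 note: IS621 bridge recombinase in Escherichia coli cells against a fixed T5 target plasmid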
Respond numerically, and do not add a unit to the figure.

The value of recombinant UMI read abundance (log10) measured for the sequence CGCACCTCATGGACCGGTTTTCCCGGTAATCCGTATTTGGG (site CGCACCTCTCC) turned out to be 0.526

The value of recombinant UMI read abundance (log10) measured for the sequence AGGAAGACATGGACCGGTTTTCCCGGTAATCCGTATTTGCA (site AAGAAGCCTTG) turned out to be 0

The value of recombinant UMI read abundance (log10) measured for the sequence GGGGCACCATGGACCGGTTTTCCCGGTAATCCGTATTTGCC (site GGGGCACCTTG) turned out to be 0.00491

The value of recombinant UMI read abundance (log10) measured for the sequence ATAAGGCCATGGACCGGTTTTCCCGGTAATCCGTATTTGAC (site ATAAGGACTGT) turned out to be 0.956

====

protocol_notes: recombinant UMI read abundance after kanamycin selection (control-corrected) (log10(CPM+1)); higher = more efficient recombination; extreme values may be limits of the assay; sequences stand for … in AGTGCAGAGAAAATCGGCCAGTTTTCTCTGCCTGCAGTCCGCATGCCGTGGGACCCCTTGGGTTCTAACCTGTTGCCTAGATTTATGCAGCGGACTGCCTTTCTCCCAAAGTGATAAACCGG…AGGTTGGTTTCACT; site = the 11-nt donor
experimental_endpoint: recombinant UMI read abundance (log10)
Respond numerically, and do not add a unit to the figure.

The value of recombinant UMI read abundance (log10) measured for the sequence TCGAATTCATGGACCGGTTTTCCCGGTAATCCGTATTTGCC (site TCCAATTCTGG) turned out to be 0

The value of recombinant UMI read abundance (log10) measured for the sequence CACTAGGCATGGACCGGTTTTCCCGGTAATCCGTATTTGTA (site CACTAGGCTTA) turned out to be 1.42

The value of recombinant UMI read abundance (log10) measured for the sequence AGAGTAACATGGACCGGTTTTCCCGGTAATCCGTATTTGCA (site AGAGTAACTTG) turned out to be 2.71

The value of recombinant UMI read abundance (log10) measured for the sequence CACTTGCCATGGACCGGTTTTCCCGGTAATCCGTATTTGGA (site CACTTGACTTC) turned out to be 0.0268

The value of recombinant UMI read abundance (log10) measured for the sequence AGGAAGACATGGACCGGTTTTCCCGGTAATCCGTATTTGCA (site AGGGAGACTTG) turned out to be 1.32

The value of recombinant UMI read abundance (log10) measured for the sequence CGTAAGACATGGACCGGTTTTCCCGGTAATCCGTATTTGCA (site CGTAAGACTTG) turned out to be 2.68

The value of recombinant UMI read abundance (log10) measured for the sequence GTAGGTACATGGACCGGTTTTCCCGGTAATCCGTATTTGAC (site GTAAGTACTGT) turned out to be 1.98

The value of recombinant UMI read abundance (log10) measured for the sequence GGAGGGGCATGGACCGGTTTTCCCGGTAATCCGTATTTGGT (site GGAGAGGCTAC) turned out to be 0.335

The value of recombinant UMI read abundance (log10) measured for the sequence TCCCCTGCATGGACCGGTTTTCCCGGTAATCCGTATTTGAT (site TCCCCTGCTAT) turned out to be 0.00458

The value of recombinant UMI read abundance (log10) measured for the sequence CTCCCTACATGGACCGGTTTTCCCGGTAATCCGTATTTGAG (site CTCCCTGCTCT) turned out to be 0.0117

The value of recombinant UMI read abundance (log10) measured for the sequence CAGCAGCCATGGACCGGTTTTCCCGGTAATCCGTATTTGGT (site CAGCAGCCTAC) turned out to be 0.642

The value of recombinant UMI read abundance (log10) measured for the sequence CTCTATACATGGACCGGTTTTCCCGGTAATCCGTATTTGAC (site GTCTATACTGT) turned out to be 0.00602

The value of recombinant UMI read abundance (log10) measured for the sequence CAAGCAGCATGGACCGGTTTTCCCGGTAATCCGTATTTGGT (site CAAGCAGCTAC) turned out to be 1.73

The value of recombinant UMI read abundance (log10) measured for the sequence CACATCCCATGGACCGGTTTTCCCGGTAATCCGTATTTGCA (site CACATCCCTTG) turned out to be 2

The value of recombinant UMI read abundance (log10) measured for the sequence TCATCGTCATGGACCGGTTTTCCCGGTAATCCGTATTTGAA (site TCATCGTCTTT) turned out to be 0.467

The value of recombinant UMI read abundance (log10) measured for the sequence GTAATACCATGGACCGGTTTTCCCGGTAATCCGTATTTGCA (site GTAATACCTTG) turned out to be 0

The value of recombinant UMI read abundance (log10) measured for the sequence GAAAGTCCATGGACCGGTTTTCCCGGTAATCCGTATTTGTA (site TAAAGTCCTTA) turned out to be 1.01

The value of recombinant UMI read abundance (log10) measured for the sequence CAATCGCCATGGACCGGTTTTCCCGGTAATCCGTATTTGTG (site CAAACGCCTCA) turned out to be 0.0185

The value of recombinant UMI read abundance (log10) measured for the sequence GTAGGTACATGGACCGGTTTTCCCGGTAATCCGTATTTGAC (site GTAGGTACTTT) turned out to be 0

The value of recombinant UMI read abundance (log10) measured for the sequence CTGTCGACATGGACCGGTTTTCCCGGTAATCCGTATTTGGG (site CCGTCGACTCC) turned out to be 0.0205

The value of recombinant UMI read abundance (log10) measured for the sequence CAGTAGACATGGACCGGTTTTCCCGGTAATCCGTATTTGGG (site CAGTTGACTCC) turned out to be 0.033

====

protocol_notes: recombinant UMI read abundance after kanamycin selection (control-corrected) (log10(CPM+1)); higher = more efficient recombination; extreme values may be limits of the assay; sequences stand for … in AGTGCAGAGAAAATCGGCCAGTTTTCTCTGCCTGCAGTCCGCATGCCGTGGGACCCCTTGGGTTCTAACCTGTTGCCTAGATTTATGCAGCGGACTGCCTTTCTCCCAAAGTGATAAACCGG…AGGTTGGTTTCACT; site = the 11-nt donor
Classification field. Basis: recombinant UMI read abundance (log10). Definitions: low-valued (below 0.03), mid-valued (0.03 to below 1), high-valued (1 or more)

Exercise: // bin(item) where item = AAATGTTCATGGACCGGTTTTCCCGGTAATCCGTATTTGCC (site AAATGTTCTGG)
Key: high-valued

Exercise: // bin(item) where item = GCTAGCACATGGACCGGTTTTCCCGGTAATCCGTATTTGCT (site GCTAGCACTAG)
Key: high-valued

Exercise: // bin(item) where item = GAAAGTCCATGGACCGGTTTTCCCGGTAATCCGTATTTGTA (site CAAAGTCCTTA)
Key: mid-valued

Exercise: // bin(item) where item = ACACATCCATGGACCGGTTTTCCCGGTAATCCGTATTTGAA (site ACACATCCTGT)
Key: low-valued

Exercise: // bin(item) where item = TGTATACCATGGACCGGTTTTCCCGGTAATCCGTATTTGAC (site TGTATACCTGT)
Key: low-valued

Exercise: // bin(item) where item = AGAACGGCATGGACCGGTTTTCCCGGTAATCCGTATTTGCT (site AGAACGGCTAG)
Key: high-valued

Exercise: // bin(item) where item = CTGGAAGCATGGACCGGTTTTCCCGGTAATCCGTATTTGCA (site CTGGAATCTTG)
Key: high-valued

Exercise: // bin(item) where item = CTACTAACATGGACCGGTTTTCCCGGTAATCCGTATTTGCA (site CTACTAACTTT)
Key: high-valued

Exercise: // bin(item) where item = GACCGGGCATGGACCGGTTTTCCCGGTAATCCGTATTTGCG (site GACCGGGCTCG)
Key: low-valued

Exercise: // bin(item) where item = AGGTTCGCATGGACCGGTTTTCCCGGTAATCCGTATTTGTG (site AGGTTCTCTCA)
Key: low-valued

Exercise: // bin(item) where item = GCGCATGCATGGACCGGTTTTCCCGGTAATCCGTATTTGGT (site GTGCATGCTAC)
Key: mid-valued

Exercise: // bin(item) where item = CTGGAAGCATGGACCGGTTTTCCCGGTAATCCGTATTTGCA (site CTGGAAACTTG)
Key: mid-valued
